- Assay Comment: Pharmacokinetics study of KPT-335 in cats (i.v. injection, p.o. capsules and tablets; UPLC-MS/MS, non-compartmental analysis)
- Type: in vivo
- Test Parameters: both sexes, cat, plasma, po, 0.2 mg/kg, cats, capsule p.o. 0.2 mg/kg BW, 32 h, mean
Parameter Measured: concentration at 32 h (ng/mL)
Give your result in ng/mL as a bare value.

Quick note, concentration at 32 h for O=C(/C=C\n1cnc(-c2cc(C(F)(F)F)cc(C(F)(F)F)c2)n1)NNc1ccccn1 [KPT-335] landed at 3.58

====

- Assay Comment: Pharmacokinetics study of KPT-335 in cats (i.v. injection, p.o. capsules and tablets; UPLC-MS/MS, non-compartmental analysis)
- Assay type: in vivo
- Test Parameters: both sexes, plasma, po, 2 mg/kg, cats, Capsule, Fasting, 2 mg/kg BW
Parameter Measured: MRT last (h)
Give your result in h as a bare value.

Quick note, MRT last for O=C(/C=C\n1cnc(-c2cc(C(F)(F)F)cc(C(F)(F)F)c2)n1)NNc1ccccn1 [KPT-335] landed at 7.57

====

- Assay Comment: Pharmacokinetics study of KPT-335 in cats (i.v. injection, p.o. capsules and tablets; UPLC-MS/MS, non-compartmental analysis)
- Assay type: in vivo
- Test Parameters: both sexes, cat, plasma, po, cats, p.o. capsules 0.2–2 mg/kg BW; read-out: absolute bioavailability, capsule group range
Parameter Measured: bioavailability

Quick note, bioavailability for O=C(/C=C\n1cnc(-c2cc(C(F)(F)F)cc(C(F)(F)F)c2)n1)NNc1ccccn1 [KPT-335] landed at 28.9 to 44.7%

====

- Assay Comment: Pharmacokinetics study of KPT-335 in cats (i.v. injection, p.o. capsules and tablets; UPLC-MS/MS, non-compartmental analysis)
- Type: in vivo
- Test Parameters: both sexes, cat, plasma, po, 2 mg/kg, cats, tablet p.o. 2 mg/kg BW after feeding, 4 h, mean; read-out: Plasma concentration Mean
Parameter Measured: concentration at 4 h (ng/mL)
Give your result in ng/mL as a bare value.

Quick note, concentration at 4 h for O=C(/C=C\n1cnc(-c2cc(C(F)(F)F)cc(C(F)(F)F)c2)n1)NNc1ccccn1 landed at 333

====

- Assay Comment: Pharmacokinetics study of KPT-335 in cats (i.v. injection, p.o. capsules and tablets; UPLC-MS/MS, non-compartmental analysis)
- Assay type: in vivo
- Test Parameters: both sexes, plasma, po, 0.2 mg/kg, cats, p.o., Capsule, Fasting, 0.2 mg/kg BW; read-out: AUCINF_obs
- Procedure: In this study, a parallel trial design was employed, 42 adult domestic cats (21 males and 21 females), aged 1 to 2 years and weighing 2.5 ± 0.25 kg. Cats were grouped by random number, with half male and female in each group, and all cats were determined to be systemically healthy during an initial screening visit 1 week prior to the experiment. They were acclimatized to the laboratory environment for 7 days before the study commenced. […]
Parameter Measured: AUC(0-inf) (ng·h/mL)
Give your result in ng·h/mL as a bare value.

Quick note, AUC(0-inf) for O=C(/C=C\n1cnc(-c2cc(C(F)(F)F)cc(C(F)(F)F)c2)n1)NNc1ccccn1 [KPT-335] landed at 314

====

- Assay Comment: Pharmacokinetics study of KPT-335 in cats (i.v. injection, p.o. capsules and tablets; UPLC-MS/MS, non-compartmental analysis)
- Assay type: in vivo
- Test Parameters: both sexes, cat, plasma, po, 2 mg/kg, cats, capsule p.o. 2 mg/kg BW, 24 h, mean
Parameter Measured: concentration at 24 h (ng/mL)
Give your result in ng/mL as a bare value.

Quick note, concentration at 24 h for O=C(/C=C\n1cnc(-c2cc(C(F)(F)F)cc(C(F)(F)F)c2)n1)NNc1ccccn1 landed at 9.56
